Target: T1, N-terminal SH2 domain of C. glabrata Spt6 (Spt6-N-SH2) (C. glabrata, UniProt Q6FLB1 1250-1354)
T1 sequence (looked up): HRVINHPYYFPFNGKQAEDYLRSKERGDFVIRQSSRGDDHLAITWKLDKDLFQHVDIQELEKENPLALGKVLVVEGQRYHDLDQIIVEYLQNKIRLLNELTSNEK
Assay: fluorescence polarisation
Square brackets hold non-standard residues; d marks the D form. Ends that are not written are not given here. pY = N[C@@H](Cc1ccc(OP(=O)(O)O)cc1)C(=O)O
Assay Metric: Kd (µM)
Express your answer in µM, writing the number without its unit.

q: Could you share which Kd value was measured for {5,6‑FAM}-PS[pY]SPTSPS[pY]SPTSPS [(pY1-CTD)2, FAM-labelled tyrosine-phosphorylated CTD diheptad] ?
a: 313
